Numbers sourced from the OligoGym collection.

biological target: HIF1A; experiment: HeLa, 100 nM transfected, 24 h, mean of 3; details: ASO
Bases are written 5' to 3'; sugars and linkages follow in the same order, as letters with counts (s phosphorothioate, o phosphodiester; PS: all linkages phosphorothioate). C may stand for cytosine or 5-methylcytosine; the collection does not tell. l = locked nucleic acid (LNA); d = 2'-deoxy (DNA)
readout type: caspase activation (% of PBS control)
Lab note: jot the number down without any unit.

// recorded caspase activation (% of PBS control) for GCAAGCATCCTGT (sugars l2 d1 l1 d8 l1, PS) : 314

The sequence identified as ACTGCCTTCTTAC (sugars l1 d2 l1 d8 l1, PS) registered its caspase activation (% of PBS control) at 119

GTTACTGCCTTCTTAC (sugars lddldddddddddldl, PS) yielded caspase activation (% of PBS control) of 121

caspase activation (% of PBS control) for TACTGCCTTCTTA (sugars ldllddddddldl, PS) is 317

GET /value?item= GTTACTGCCTTCTTAC (sugars l1 d11 l1 d1 l2, PS) &field=caspase activation (% of PBS control) returns 117

Looking up ACTGCCTTCTTAC (sugars l4 d6 l1 d1 l1, PS) , I found its caspase activation (% of PBS control) recorded as 393

###

For each record, write down the corresponding caspase activation (% of PBS control).
molecular target: HIF1A; test: HeLa, 100 nM transfected, 24 h, mean of 3; conditions: ASO
Bases are written 5' to 3'; sugars and linkages follow in the same order, as letters with counts (s phosphorothioate, o phosphodiester; PS: all linkages phosphorothioate). C may stand for cytosine or 5-methylcytosine; the collection does not tell. l = locked nucleic acid (LNA); d = 2'-deoxy (DNA)
A bare number is all that is needed in reply.

HIF1A data for TGGCAAGCATCCTGTA (sugars ldlddddddddddldl, PS) ; its caspase activation (% of PBS control): 147

The sequence GTTACTGCCTTCTTAC (sugars ldlldddddddldddl, PS) on HIF1A: caspase activation (% of PBS control) was 213

Reported HIF1A caspase activation (% of PBS control) for item CAAGCATCCTGTA (sugars l4 d7 l2, PS) was 212

Response field caspase activation (% of PBS control) (HIF1A) for item TGGCAAGCATCCTGTA (sugars l4 d7 l3 d1 l1, PS) : 575

# TGGCAAGCATCCTGTA (sugars l4 d8 l1 d1 l2, PS) with HIF1A: caspase activation (% of PBS control) is 385

Value sought: caspase activation (% of PBS control), system HIF1A, item GTTACTGCCTTCTTAC (sugars lddldddddddllldl, PS) . Result: 227

###

Exercise: state measured caspase activation (% of PBS control) for each of the sequences provided.
biological target: HIF1A; assay: HeLa, 100 nM transfected, 24 h, mean of 3; conditions: ASO
Bases are written 5' to 3'; sugars and linkages follow in the same order, as letters with counts (s phosphorothioate, o phosphodiester; PS: all linkages phosphorothioate). C may stand for cytosine or 5-methylcytosine; the collection does not tell. l = locked nucleic acid (LNA); d = 2'-deoxy (DNA)

What the record says about TGGCAAGCATCCTGTA (sugars ldlllddddddddldl, PS) : caspase activation (% of PBS control) is 448

// caspase activation (% of PBS control) value for GTTACTGCCTTCTTAC (sugars lddllddddddllddl, PS) : 268

response.value for GCAAGCATCCTGT (sugars lddlddddddldl, PS) (field: caspase activation (% of PBS control)) = 109

Reported caspase activation (% of PBS control) of GCAAGCATCCTGT (sugars l1 d1 l1 d8 l2, PS) : 188

response.value for GTTACTGCCTTCTTAC (sugars ldldldddddddllll, PS) (field: caspase activation (% of PBS control)) = 257

response.value for GTTACTGCCTTCTTAC (sugars l2 d9 l1 d3 l1, PS) (field: caspase activation (% of PBS control)) = 107

caspase activation (% of PBS control) recorded for this sequence, GTTACTGCCTTCTTAC (sugars lddldddddddldddl, PS) , is 88.6

Lab book: caspase activation (% of PBS control) of GTTACTGCCTTCTTAC (sugars lldllddddddllddl, PS) noted as 356

Just so you know, measured caspase activation (% of PBS control) for GCAAGCATCCTGT (sugars l1 d1 l2 d7 l2, PS) came out at 220

Noted for TGGCAAGCATCCT (sugars l2 d10 l1, PS) : its caspase activation (% of PBS control) reads 364

So, TGGCAAGCATCCTGTA (sugars ldddlddddddllldl, PS) ? Its caspase activation (% of PBS control) was 224

response.value for TGGCAAGCATCCTGTA (sugars lddldddddddldlll, PS) (field: caspase activation (% of PBS control)) = 303

# caspase activation (% of PBS control) (sequence: TGGCAAGCATCCTGTA (sugars l2 d1 l2 d7 l4, PS) ) is 394

// field: caspase activation (% of PBS control); key: GTTACTGCCTTCTTAC (sugars lddldddddddllddl, PS) ; value = 135

caspase activation (% of PBS control) recorded for this sequence, GTTACTGCCTTCTTAC (sugars l3 d8 l5, PS) , is 379

caspase activation (% of PBS control) reported for this sequence GGCAAGCATCCTG (sugars l1 d1 l1 d9 l1, PS) : 339

The reported value for GTTACTGCCTTCTTAC (sugars ldldlddddddlddll, PS) in terms of caspase activation (% of PBS control) is 220

Entry TGGCAAGCATCCTGTA (sugars l4 d10 l2, PS) ; caspase activation (% of PBS control) = 396

Entry TGGCAAGCATCCTGTA (sugars lldldddddddllddl, PS) , caspase activation (% of PBS control) reported as 309

Field caspase activation (% of PBS control) (entry TGGCAAGCATCCTGTA (sugars lldllddddddlddll, PS) ) reads 475

Record TGGCAAGCATCCTGTA (sugars lddlldddddddlddl, PS) , field caspase activation (% of PBS control): 461

response.value for TGGCAAGCATCCTGTA (sugars l2 d1 l1 d7 l5, PS) (field: caspase activation (% of PBS control)) = 427

Sample GTTACTGCCTTCTTAC (sugars l2 d1 l2 d8 l3, PS) ; caspase activation (% of PBS control) observed: 318

Memo: TACTGCCTTCTTA (sugars l1 d10 l2, PS) , reported caspase activation (% of PBS control): 130

The sequence identified as GTTACTGCCTTCTTAC (sugars lddllddddddddldl, PS) registered its caspase activation (% of PBS control) at 246

Lab book: caspase activation (% of PBS control) of TGGCAAGCATCCTGTA (sugars l3 d12 l1, PS) noted as 237

Notebook: GTTACTGCCTTCTTAC (sugars ldlldddddddldldl, PS) , caspase activation (% of PBS control) read as 187

Form: sequence = TACTGCCTTCTTA (sugars lddlddddddldl, PS) ; caspase activation (% of PBS control) = 133

So for CAAGCATCCTGTA (sugars lldlddddddldl, PS) , the logged caspase activation (% of PBS control) turned out to be 142

caspase activation (% of PBS control) in this record for GGCAAGCATCCTG (sugars l4 d7 l2, PS) : 528

caspase activation (% of PBS control) measured on TGGCAAGCATCCTGTA (sugars lddllddddddldldl, PS) = 402

Per the record, GTTACTGCCTTCTTAC (sugars l4 d8 l4, PS) has caspase activation (% of PBS control) of 272

caspase activation (% of PBS control) measured on TGGCAAGCATCCTGTA (sugars lldlddddddddlldl, PS) = 461

Reported caspase activation (% of PBS control) for TTACTGCCTTCTT (sugars l2 d1 l1 d6 l3, PS) was 325

Reported caspase activation (% of PBS control) of TTACTGCCTTCTT (sugars l3 d7 l1 d1 l1, PS) : 205

Sample GTTACTGCCTTCT (sugars l2 d8 l1 d1 l1, PS) ; caspase activation (% of PBS control) observed: 98.3

The reported caspase activation (% of PBS control) of the sequence TGGCAAGCATCCT (sugars lddlddddddldl, PS) was 132

caspase activation (% of PBS control) reading for GCAAGCATCCTGT (sugars l1 d9 l3, PS) : 147

According to the records, this sequence TGGCAAGCATCCTGTA (sugars ldlldddddddldlll, PS) displays caspase activation (% of PBS control) of 435

// field: caspase activation (% of PBS control); key: GTTACTGCCTTCTTAC (sugars l1 d1 l2 d10 l2, PS) ; value = 130

ACTGCCTTCTTAC (sugars l1 d9 l3, PS) yielded caspase activation (% of PBS control) of 140

Lab note: TGGCAAGCATCCTGTA (sugars l1 d1 l1 d10 l3, PS) gave caspase activation (% of PBS control) of 188

The recorded caspase activation (% of PBS control) for entry GCAAGCATCCTGT (sugars l2 d8 l3, PS) equals 401

Recorded caspase activation (% of PBS control) (sequence TGGCAAGCATCCTGTA (sugars ldlddddddddlldll, PS) ): 227

// GGCAAGCATCCTG (sugars l2 d9 l2, PS) : caspase activation (% of PBS control) value = 554
